Target: cloned human S1P1 (Homo sapiens, UniProt P21453)
Construct: expressed in transfected cells
Sequence (P21453 whole entry): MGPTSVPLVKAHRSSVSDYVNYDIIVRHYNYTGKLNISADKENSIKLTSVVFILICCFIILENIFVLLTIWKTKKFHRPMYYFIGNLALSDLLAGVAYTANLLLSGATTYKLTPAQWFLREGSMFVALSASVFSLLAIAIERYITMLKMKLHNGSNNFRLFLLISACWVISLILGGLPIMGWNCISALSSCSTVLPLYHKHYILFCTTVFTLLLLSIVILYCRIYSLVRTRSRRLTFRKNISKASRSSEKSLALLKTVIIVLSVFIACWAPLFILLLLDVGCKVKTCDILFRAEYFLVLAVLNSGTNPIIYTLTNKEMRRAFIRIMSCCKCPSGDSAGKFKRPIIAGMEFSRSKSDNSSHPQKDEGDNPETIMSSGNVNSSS
Assay info: In-vitro affinity, EC50 for cloned human S1P1
Format: biochemical
Listing of recorded pEC50 by entry.
By convention, pEC50 is the negative base-10 log of a molar concentration.

Ask: Write down the reported pEC50 of "CCc1cc(/C(C)=N/OCc2ccc(C3CCCCC3)c(C(F)(F)F)c2)ccc1CN1CC(C(=O)O)C1" , test system: cloned human S1P1 (Homo sapiens, UniProt P21453).
Reply: 9.05

# evaluate next
Ask: Write down the reported pEC50 of "CCc1cc(/C(C)=N/OCc2ccc(C3CCCCC3)c(I)c2)ccc1CN1CC(C(=O)O)C1" , test system: cloned human S1P1 (Homo sapiens, UniProt P21453).
Reply: 8.66

###

Target: S1P5 (Homo sapiens)
Sequence (Q9H228 whole entry, species assumed): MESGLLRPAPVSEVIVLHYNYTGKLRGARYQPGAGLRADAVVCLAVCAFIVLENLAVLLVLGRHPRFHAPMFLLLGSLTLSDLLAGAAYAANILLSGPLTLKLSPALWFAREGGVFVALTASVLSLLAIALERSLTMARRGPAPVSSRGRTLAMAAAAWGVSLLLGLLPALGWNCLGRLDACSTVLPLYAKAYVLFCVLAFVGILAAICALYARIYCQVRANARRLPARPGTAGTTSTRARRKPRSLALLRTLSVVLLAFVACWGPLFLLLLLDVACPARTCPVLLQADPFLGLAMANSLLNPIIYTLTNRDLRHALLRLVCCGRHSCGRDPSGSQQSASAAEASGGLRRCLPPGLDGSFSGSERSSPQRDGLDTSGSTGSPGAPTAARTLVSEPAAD
Assay info: EC50 for S1P5
Measurement setup: as quoted in Example 3.1
Observable: EC50 (nM)
Your answer should be a plain number; it is taken to be in nM.

Ask: Consider the molecule shown here: CCc1cc(/C(C)=N/OCc2ccc(C3CCCCC3)c(C(F)(F)F)c2)ccc1CN1CC(C(=O)O)C1 [siponimod] What is its recorded EC50?
Reply: 1

###

Target: UniProt P21453
Assay info: EC50 for S1P1
Measurement setup: as quoted in Example 3.1
Observable: EC50 (nM)
Your answer should be a plain number; it is taken to be in nM.

Ask: Write down the reported EC50 of "CCc1cc(/C(C)=N/OCc2ccc(C3CCCCC3)c(C(F)(F)F)c2)ccc1CN1CC(C(=O)O)C1" , test system: UniProt P21453.
Reply: 0.4
